tested_target: human CB2 receptor (Homo sapiens, UniProt P34972)
Construct: membranes prepared in house
Sequence (P34972 whole entry): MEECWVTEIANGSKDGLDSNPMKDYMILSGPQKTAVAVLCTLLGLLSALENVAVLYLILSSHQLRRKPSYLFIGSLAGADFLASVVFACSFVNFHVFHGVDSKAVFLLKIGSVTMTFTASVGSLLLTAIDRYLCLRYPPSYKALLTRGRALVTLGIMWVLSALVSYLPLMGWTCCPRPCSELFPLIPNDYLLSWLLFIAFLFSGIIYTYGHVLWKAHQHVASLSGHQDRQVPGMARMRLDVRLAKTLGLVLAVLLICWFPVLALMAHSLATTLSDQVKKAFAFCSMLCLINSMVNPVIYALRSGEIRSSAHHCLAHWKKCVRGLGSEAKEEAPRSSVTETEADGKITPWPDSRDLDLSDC
method: CB2 radioligand competitive binding assay ([3H]CP 55,940 displacement)
stated_conditions: fold difference in binding between CB1 and CB2, shown in the column of the receptor with higher affinity; 1.00 in both = about same affinity
Description: Compounds of the present disclosure were tested for CB1 receptor binding affinity and for CB2 receptor binding affinity. As used herein, “binding affinity” is represented by the IC50 value, which was experimentally determined as described herein. The lower the IC50 value the higher the binding affinity. A compound of the present disclosure may be said to have “binding selectivity” If it has a higher binding affinity for one receptor compared to the other. […]
Tag: Y if measured Selectivity CB2 is not below 3 fold, N if it is.

INSERT INTO measurements (compound, label_class) VALUES
  ('C=C(C)[C@@H]1CCC(C)=C[C@H]1c1c(O)cc(CCC)c(S(=O)(=O)NC(C)C)c1O [Compound 68d]', 'N'),
  ('C=C(C)[C@@H]1CCC(C)=C[C@H]1c1c(O)cc(CCCCC)c(S(=O)(=O)N(C)C)c1O (stereo in doubt) [Compound 21d]', 'N'),
  ('CCCCCc1cc(O)c(C2C=C(C)CCC2)c(O)c1S(N)(=O)=O (stereo not shown) [Compound 19c]', 'N'),
  ('C=C(C)[C@@H]1CCC(C)=C[C@H]1c1c(O)cc(CCCCC)c(S(=O)(=O)NC2CC2)c1O [Compound 22d]', 'N'),
  ('C=C(C)[C@@H]1CCC(C)=C[C@H]1c1c(O)cc(CCCCC)c(S(=O)(=O)NCc2ccccc2)c1O [Compound 25d]', 'N'),
  ('CCCCCc1cc(O)c(C2C=C(C)CCC2)c(O)c1S(=O)(=O)N(CC)CC (stereo not shown) [Compound 62c]', 'Y'),
  ('C=C(C)[C@@H]1CCC(C)=C[C@H]1c1c(O)cc(CCCCC)c(S(=O)(=O)N(CCO)CCBr)c1O [Compound 63d]', 'N'),
  ('C=C(C)[C@@H]1CCC(C)=C[C@H]1c1c(O)cc(CCCCC)c(S(=O)(=O)Nc2ccccc2)c1O [Compound 24d]', 'N'),
  ('CCCCCc1cc(O)c(C2C=C(C)CCC2)c(O)c1S(=O)(=O)NCc1ccccc1 (stereo not shown) [Compound 25c]', 'N'),
  ('C=C(C)[C@@H]1CCC(C)=C[C@H]1c1c(O)cc(CCCCC)c(S(=O)(=O)N2CCOCC2)c1O [Compound 28d]', 'Y'),
  ('C=C(C)[C@@H]1CCC(C)=C[C@H]1c1c(O)cc(CCCCC)c(S(=O)(=O)NC(C)C)c1O (stereo in doubt) [Compound 23d]', 'N'),
  ('CCCCCc1cc(O)c(C2C=C(C)CCC2)c(O)c1S(=O)(=O)NC1CC1 (stereo not shown) [Compound 22c]', 'Y'),
  ('CCCCCc1cc(O)c(C2C=C(C)CCC2)c(O)c1S(=O)(=O)Nc1ccccc1 (stereo not shown) [Compound 24c]', 'Y'),
  ('C=C(C)[C@@H]1CCC(C)=C[C@H]1c1c(O)cc(CCCCC)c(S(=O)(=O)N(CC)CC)c1O [Compound 62d]', 'Y'),
  ('C=C(C)[C@@H]1CCC(C)=C[C@H]1c1c(O)cc(CCCCC)c(S(C)(=O)=O)c1O [Compound 3d]', 'N');
